- assay.target: G/T mismatch-specific thymine DNA glycosylase (Homo sapiens) (UniProt Q13569);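 note: human TDG cleavage of quenched duplex DNA oligonucleotides coupled to APE1, strand release read as fluorescence at 594 nm, inhibition of TDG activity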
- Sequence (Q13569 whole entry): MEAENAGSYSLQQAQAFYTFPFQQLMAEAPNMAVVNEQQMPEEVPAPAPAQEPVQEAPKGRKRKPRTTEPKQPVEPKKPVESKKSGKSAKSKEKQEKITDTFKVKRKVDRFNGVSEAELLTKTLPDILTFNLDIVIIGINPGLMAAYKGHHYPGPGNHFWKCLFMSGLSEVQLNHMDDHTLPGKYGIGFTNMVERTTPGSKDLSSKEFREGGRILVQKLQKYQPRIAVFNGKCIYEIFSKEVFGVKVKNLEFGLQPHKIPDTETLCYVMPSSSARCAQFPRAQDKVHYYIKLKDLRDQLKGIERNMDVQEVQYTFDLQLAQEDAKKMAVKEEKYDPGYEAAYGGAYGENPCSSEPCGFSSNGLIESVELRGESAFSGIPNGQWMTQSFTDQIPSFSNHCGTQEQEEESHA
- details: Compound Concentration 10.0 uM, Hit No
- Description: Inhibition of TDG by quantifying inhibition of TDG-mediated cleavage and dissociation of quenched duplex DNA oligonucleotides, measured as fluorescence at 594 nm. To generate a functional strand incision and increase turn-over this assay is coupled to APE1.
This section presents compounds with their documented inhibition values.
Answer format: value, then unit.

Below, 5 compounds whose answers are already recorded.
[
  {
    "compound": "Cc1cc(-c2nncc3c(C(C)(C)C)c(OCc4ncnn4C)nn23)no1",
    "test.value": "-4.49%"
  },
  {
    "compound": "CNC(=O)[C@H]1O[C@@H](n2cnc3c(NCc4cccc(I)c4)ncnc32)[C@H](O)[C@@H]1O",
    "test.value": "6.72%"
  },
  {
    "compound": "O=C(COc1cccc2ccccc12)Nc1cc(Cl)ccc1C(=O)O",
    "test.value": "37.7%"
  },
  {
    "compound": "Cn1cc(C(=O)OCC2CCN(CCNS(C)(=O)=O)CC2)c2ccccc21",
    "test.value": "-0.888%"
  },
  {
    "compound": "N[C@H](C(=O)O)c1ccc(C(=O)O)c(C(=O)O)c1",
    "test.value": "4.6%"
  }
]

// field: inhibition; key: OCCN1CCN(CCCN2c3ccccc3Sc3ccc(Cl)cc32)CC1 ; value = 3.7%

// inhibition value for COC(=O)[C@H]1[C@H]2C[C@H]3c4[nH]c5ccccc5c4CCN3C[C@H]2CC[C@@H]1O : 5.99%

Entry under test: CC(C)Oc1ccc(Cc2ccc(NC3=NCCN3)cc2)cc1 . Its inhibition was 0.0736%

The value of inhibition measured for the compound CN(Cc1cccc(F)c1CNc1cc(F)c(S(=O)(=O)Nc2cscn2)c(F)c1)C(C)(C)C turned out to be 4.92%

For O=C(Nc1cccnn1)N1CCC(=Cc2cccc(Oc3ccc(C(F)(F)F)cn3)c2)CC1 the compound record lists inhibition as 59.6%

// sample C[C@H](C[C@H](N)C(=O)O)C(=O)O , its inhibition was 0.112%

Record N[C@@]1(C(=O)O)CC[C@H]2[C@H](C(=O)O)[C@H]21 . Reported inhibition: 13.1%

====

- assay.target: Adenine DNA glycosylase (Homo sapiens);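 note: human MUTYH activity read as 594 nm fluorescence from cleavage and release of a quenched DNA duplex, coupled with APE1 for strand incision, lower signal meaning inhibition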
- details: Compound Concentration 10.0 uM, Hit No
- Description: Inhibition of MUTYH by quantifying inhibition of MUTYH-mediated cleavage and dissociation of quenched duplex DNA oligonucleotides, measured as fluorescence at 594 nm. To generate a functional strand incision and increase turn-over this assay is coupled to APE1.
reported.metric: inhibition (%)
Field format: number, assumed %, no unit text.

Briefly, inhibition measured for C[C@@H]1CN(c2cc(-c3n[nH]c4ccc(OC5(C)CC5)cc34)ncn2)C[C@H](C)O1 : 9.89

// C[C@@H]1CN(c2cc(-c3nn(C)c4ccc(OC5(C)CC5)cc34)ncn2)C[C@H](C)O1 : inhibition value = -0.542

Notebook: OC[C@H]1O[C@@H](n2cnc3c(NC4CCCC4)ncnc32)[C@H](O)[C@@H]1O , inhibition read as 9.75

====

- assay.target: Endonuclease III-like protein 1 (Homo sapiens) (UniProt P78549);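 note: enzyme assay tracking NTHL1 cutting and release of a quenched double-stranded DNA oligo substrate, read as fluorescence at 594 nm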
- Sequence (P78549 whole entry): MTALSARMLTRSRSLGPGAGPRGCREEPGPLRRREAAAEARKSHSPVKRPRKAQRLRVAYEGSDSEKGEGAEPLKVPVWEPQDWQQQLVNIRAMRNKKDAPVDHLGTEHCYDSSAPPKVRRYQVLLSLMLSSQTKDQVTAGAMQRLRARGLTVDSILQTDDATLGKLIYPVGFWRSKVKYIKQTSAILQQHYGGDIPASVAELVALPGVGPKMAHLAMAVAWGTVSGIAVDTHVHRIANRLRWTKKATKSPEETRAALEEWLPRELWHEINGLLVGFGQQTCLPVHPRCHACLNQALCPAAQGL
- details: Compound Concentration 10.0 uM, Hit No
- Description: Inhibition of NTHL1 by quantifying inhibition of NTHL1-mediated cleavage and dissociation of quenched duplex DNA oligonucleotides, measured as fluorescence at 594 nm.
reported.metric: inhibition (%)
Give just the number in %; leave the unit off.

[
  {
    "molecule": "CCCN(CCC)[C@@H]1CCc2ccc3[nH]c(C#N)cc3c2C1",
    "inhibition / %": -5.21
  },
  {
    "molecule": "CNC(=O)c1cc(C(=O)N[C@H]2[C@@H]3COC[C@@H]32)cc2c1O[C@H](CF)[C@H]2c1ccccc1",
    "inhibition / %": -3.26
  },
  {
    "molecule": "CC(CNS(=O)(=O)C(C)C)c1ccc(-c2ccc(C#N)cc2)cc1 (centres undefined)",
    "inhibition / %": 4.7
  },
  {
    "molecule": "O=C(NCCS(=O)(=O)c1ccc(C(F)(F)F)cn1)c1ccc(Cl)cc1",
    "inhibition / %": -0.63
  },
  {
    "molecule": "COc1cc(C(C)C)c(Oc2cnc(NC(CO)CO)nc2N)cc1I",
    "inhibition / %": 6.35
  }
]

Reported inhibition of Cn1nc(C(=O)NCc2ccc(C(=O)O)cc2)cc1-c1ccc2[nH]ccc2c1 : -3.92

Entry under test: Cn1cc(Cl)c2c(Oc3c(F)cc(Nc4cc(Cl)nc(N)n4)cc3F)ccnc21 . Its inhibition was -1.29

For CCCCCCNC(=O)Nc1ccc(S(=O)(=O)Nc2ccc(CCNC[C@H](O)COc3ccc(O)cc3)cc2)cc1 the molecule record lists inhibition as 10.5

Documented inhibition of CCn1cnc2c(-c3ccc(F)c(-c4ccc(S(=O)(=O)CC)cc4OC)c3)cnnc21 : 13.8

Summary for this molecule, c1ccc(C2CCN(c3cnc4c(N5CCOCC5)nccn34)CC2)cc1 : inhibition is -2.6

// inhibition lookup, molecule = O=C(O)C[C@H]1CCc2c1[nH]c1ccc(OCc3ccc(C4CCCC4)c(C(F)(F)F)c3)cc21 , result: 36.4

// recorded inhibition for CC(C)(O)c1cn(-c2ccc(-c3cccc(S(C)(=O)=O)c3)cc2)c(C(C)(C)c2ccccc2Cl)n1 : -2.6

====

Reported inhibition values for the following compounds.
- assay.target: Single-strand selective monofunctional uracil DNA glycosylase (Homo sapiens) (UniProt Q53HV7);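 note: enzymatic SMUG1 assay coupled with APE1, reading fluorescence at 594 nm released when a quenched double-stranded DNA oligonucleotide substrate is cleaved and separated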
- Sequence (whole entry): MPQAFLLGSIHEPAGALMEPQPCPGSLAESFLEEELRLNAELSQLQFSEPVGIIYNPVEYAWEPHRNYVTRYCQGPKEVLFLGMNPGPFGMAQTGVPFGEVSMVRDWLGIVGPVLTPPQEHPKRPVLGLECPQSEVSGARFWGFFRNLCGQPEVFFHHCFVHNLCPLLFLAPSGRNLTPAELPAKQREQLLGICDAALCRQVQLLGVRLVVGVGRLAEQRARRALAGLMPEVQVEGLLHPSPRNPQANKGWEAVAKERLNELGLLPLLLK
- details: Compound Concentration 1.0 uM, Hit No
- Description: Inhibition of SMUG1 by quantifying inhibition of SMUG1-mediated cleavage and dissociation of quenched duplex DNA oligonucleotides, measured as fluorescence at 594 nm. To generate a functional strand incision and increase turn-over this assay is coupled to APE1.
The reply should contain only the number, in %.

Some solved cases for reference:
[
  {
    "compound.structure": "O=C(Nc1ccc(-c2ccnc(Nc3ccc(N4CCOCC4)cc3)n2)cc1)[C@@H]1CCCN1",
    "reported.metric": "inhibition",
    "readout.unit": "%",
    "test.value": 24.9
  },
  {
    "compound.structure": "COc1ccc2cc(OCC3(C(=O)O)CN(C(=O)c4ccc(F)cc4)C3)ccc2c1",
    "reported.metric": "inhibition",
    "readout.unit": "%",
    "test.value": 4.5
  },
  {
    "compound.structure": "CCc1cc(Nc2nccc(-c3c(-c4ccc(OC)c(C(=O)Nc5c(F)cccc5F)c4)nc4ccccn34)n2)c(OC)cc1N1CCC(N2CCN(S(C)(=O)=O)CC2)CC1",
    "reported.metric": "inhibition",
    "readout.unit": "%",
    "test.value": 21.4
  },
  {
    "compound.structure": "CCN1CCN(c2ccc(Nc3cc(N(C)C(=O)Nc4c(Cl)c(OC)cc(OC)c4Cl)ncn3)cc2)CC1",
    "reported.metric": "inhibition",
    "readout.unit": "%",
    "test.value": 20.5
  }
]

// inhibition value for CN(C)C(=O)Cn1cc(-c2ccc(-c3nnc4ccccn34)cc2)cn1 : 22.7

The compound identified as CCCCN(CCCC)C(=O)CN1C[C@H](c2cc(OC)c3c(c2)OCO3)[C@@H](C(=O)O)[C@@H]1CC(C)(C)CCC registered its inhibition at 14.3

====

- assay.target: N-glycosylase/DNA lyase (Homo sapiens) (UniProt O15527)
- Sequence (O15527 whole entry): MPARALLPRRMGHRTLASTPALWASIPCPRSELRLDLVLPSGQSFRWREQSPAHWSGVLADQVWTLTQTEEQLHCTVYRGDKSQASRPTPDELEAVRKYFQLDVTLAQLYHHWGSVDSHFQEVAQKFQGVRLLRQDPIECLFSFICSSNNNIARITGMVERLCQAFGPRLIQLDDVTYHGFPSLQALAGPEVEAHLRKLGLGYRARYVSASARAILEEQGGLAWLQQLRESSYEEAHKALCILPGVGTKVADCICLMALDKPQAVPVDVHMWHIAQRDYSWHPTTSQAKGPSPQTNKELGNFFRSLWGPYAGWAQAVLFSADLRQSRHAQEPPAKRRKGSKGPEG
- details: Compound Concentration 10.0 uM, Hit No
- Description: Inhibition of OGG1 by quantifying inhibition of OGG1-mediated cleavage and dissociation of quenched duplex DNA oligonucleotides, measured as fluorescence at 594 nm. To generate a functional strand incision and increase turn-over this assay is coupled to APE1.
reported.metric: inhibition

Sample records with inhibition:
[
  {
    "compound": "CC[C@H](Nc1c(C#N)c(-c2ccc(-c3cccc(C)c3F)cc2)nc2cnccc12)C(=O)O",
    "assay.target": "N-glycosylase/DNA lyase (Homo sapiens) (UniProt O15527)",
    "inhibition": "43.2%"
  },
  {
    "compound": "O=C(c1cc(C2CC2)on1)N(C1CCCCC1)C1CCCCC1",
    "assay.target": "N-glycosylase/DNA lyase (Homo sapiens) (UniProt O15527)",
    "inhibition": "0.0968%"
  },
  {
    "compound": "Cn1ncc2c(-c3c(-c4ccc(F)cn4)nn4c3COC(C)(C)C4)ccnc21",
    "assay.target": "N-glycosylase/DNA lyase (Homo sapiens) (UniProt O15527)",
    "inhibition": "-1.93%"
  },
  {
    "compound": "CN1CCC[C@H]1c1cccnc1",
    "assay.target": "N-glycosylase/DNA lyase (Homo sapiens) (UniProt O15527)",
    "inhibition": "-8.49%"
  },
  {
    "compound": "CC[S+]([O-])c1nc(-c2cccc(OCc3ccccc3)c2)cc(C(F)(F)F)n1 (stereo not given)",
    "assay.target": "N-glycosylase/DNA lyase (Homo sapiens) (UniProt O15527)",
    "inhibition": "6.41%"
  },
  {
    "compound": "N=C(N)SCCc1c[nH]cn1",
    "assay.target": "N-glycosylase/DNA lyase (Homo sapiens) (UniProt O15527)",
    "inhibition": "-6.9%"
  },
  {
    "compound": "CCCCN(CC)c1nc(C)nc2c1c(C)cn2-c1c(C)cc(C)cc1C",
    "assay.target": "N-glycosylase/DNA lyase (Homo sapiens) (UniProt O15527)",
    "inhibition": "2.6%"
  },
  {
    "compound": "NCCCCN(Cc1nc2ccccc2[nH]1)[C@H]1CCCc2cccnc21",
    "assay.target": "N-glycosylase/DNA lyase (Homo sapiens) (UniProt O15527)",
    "inhibition": "-6.41%"
  },
  {
    "compound": "COc1cc2nc(N(C)CCCNC(=O)C3CCCO3)nc(N)c2cc1OC (stereo not given)",
    "assay.target": "N-glycosylase/DNA lyase (Homo sapiens) (UniProt O15527)",
    "inhibition": "-9.24%"
  }
]

Now consider a different compound.
Lab entry: N-glycosylase/DNA lyase (Homo sapiens) (UniProt O15527) assay, compound O=C1CSC(=O)N1C(CCc1ccncc1)COc1ccc(-c2cccc([N+](=O)[O-])c2)cc1 (stereo not given) , inhibition = -1.32%

Cited source: ChEMBL document CHEMBL5665443
